# System: Plasma
# assay_remarks: Plasma concentration in mouse model of chronic constriction injury-induced cold hyperalgesia at 100 mg/kg, po dosed 30 mins before testing starting 5 weeks after surgery
# Assay type: ADME, organism-based
# measurement_parameters: in vivo
recorded_endpoint: concentration (µM)
Entry rule: numbers only, all in µM.

Need concentration of `O=S(=O)(Nc1nccs1)c1cc(Cl)c(NC[C@H]2CCCOC2)cc1F` , thanks. 32

----------
# assay_remarks: Drug concentration in brain of mouse model of complete Freund's adjuvant-induced inflammatory pain at 60 mg/kg, po measured after 90 mins post dose
# Assay type: ADME, organism-based
# measurement_parameters: read-out: Drug uptake
recorded_endpoint: concentration at 1.5 h

Need concentration at 1.5 h of `O=S(=O)(Nc1nccs1)c1cc(Cl)c(NC[C@H]2CCCOC2)cc1F` , thanks. < 25 nM
